Documented IC50 across a set of compounds
Target: purified human, His-tagged PRC2 complex (Homo sapiens, UniProt O75530+Q15910)
Sequence (Q15910 whole entry): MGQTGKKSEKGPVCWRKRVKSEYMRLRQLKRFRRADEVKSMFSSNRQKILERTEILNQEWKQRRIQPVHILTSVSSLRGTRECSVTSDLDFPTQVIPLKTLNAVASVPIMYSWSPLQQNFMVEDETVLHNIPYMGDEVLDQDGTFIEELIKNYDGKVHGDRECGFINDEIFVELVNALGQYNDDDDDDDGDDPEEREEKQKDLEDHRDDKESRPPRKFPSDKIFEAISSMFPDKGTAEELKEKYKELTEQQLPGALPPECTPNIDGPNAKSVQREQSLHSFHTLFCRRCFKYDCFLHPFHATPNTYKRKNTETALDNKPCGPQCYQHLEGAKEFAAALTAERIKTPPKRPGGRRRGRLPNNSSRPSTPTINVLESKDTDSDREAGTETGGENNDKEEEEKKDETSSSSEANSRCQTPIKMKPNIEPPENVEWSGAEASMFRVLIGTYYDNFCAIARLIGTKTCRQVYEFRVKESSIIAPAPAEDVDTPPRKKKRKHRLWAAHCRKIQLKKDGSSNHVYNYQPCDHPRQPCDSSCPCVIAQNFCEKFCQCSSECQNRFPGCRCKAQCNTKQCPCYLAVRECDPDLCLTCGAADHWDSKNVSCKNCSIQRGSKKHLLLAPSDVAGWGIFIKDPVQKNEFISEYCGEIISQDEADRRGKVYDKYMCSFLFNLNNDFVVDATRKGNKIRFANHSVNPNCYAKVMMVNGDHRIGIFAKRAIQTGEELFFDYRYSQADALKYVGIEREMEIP
Sequence (O75530 whole entry): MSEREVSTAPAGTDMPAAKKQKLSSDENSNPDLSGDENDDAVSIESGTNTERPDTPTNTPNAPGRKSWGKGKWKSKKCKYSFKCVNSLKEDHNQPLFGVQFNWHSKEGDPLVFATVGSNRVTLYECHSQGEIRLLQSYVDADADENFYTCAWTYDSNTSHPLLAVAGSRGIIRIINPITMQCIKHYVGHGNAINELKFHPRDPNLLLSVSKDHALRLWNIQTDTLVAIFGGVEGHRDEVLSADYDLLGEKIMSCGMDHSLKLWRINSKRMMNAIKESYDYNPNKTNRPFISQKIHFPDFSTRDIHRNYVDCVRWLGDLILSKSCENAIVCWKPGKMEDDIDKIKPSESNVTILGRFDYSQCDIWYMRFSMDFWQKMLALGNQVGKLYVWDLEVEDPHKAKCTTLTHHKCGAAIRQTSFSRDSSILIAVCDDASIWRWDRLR
Sequence (Q15022 whole entry partner): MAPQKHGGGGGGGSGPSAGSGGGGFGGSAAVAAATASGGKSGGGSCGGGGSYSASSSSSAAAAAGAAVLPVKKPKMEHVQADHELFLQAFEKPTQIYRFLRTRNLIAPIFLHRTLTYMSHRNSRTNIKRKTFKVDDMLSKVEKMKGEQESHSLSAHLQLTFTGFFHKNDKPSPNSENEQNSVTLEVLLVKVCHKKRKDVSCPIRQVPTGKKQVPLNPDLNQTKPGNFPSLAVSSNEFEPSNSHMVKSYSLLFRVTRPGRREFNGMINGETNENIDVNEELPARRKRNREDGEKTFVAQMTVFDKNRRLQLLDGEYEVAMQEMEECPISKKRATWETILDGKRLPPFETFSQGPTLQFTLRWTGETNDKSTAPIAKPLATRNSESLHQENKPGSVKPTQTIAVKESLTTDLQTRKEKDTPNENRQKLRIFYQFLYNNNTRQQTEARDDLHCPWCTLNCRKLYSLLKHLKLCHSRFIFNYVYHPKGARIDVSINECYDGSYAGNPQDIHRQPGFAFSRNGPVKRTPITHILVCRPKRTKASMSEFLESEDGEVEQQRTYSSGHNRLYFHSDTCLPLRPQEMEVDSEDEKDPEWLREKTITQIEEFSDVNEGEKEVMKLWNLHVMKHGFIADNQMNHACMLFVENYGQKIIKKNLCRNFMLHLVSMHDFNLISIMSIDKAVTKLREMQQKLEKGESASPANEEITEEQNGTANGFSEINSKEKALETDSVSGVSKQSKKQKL
Sequence (Q6ZN18 whole entry partner): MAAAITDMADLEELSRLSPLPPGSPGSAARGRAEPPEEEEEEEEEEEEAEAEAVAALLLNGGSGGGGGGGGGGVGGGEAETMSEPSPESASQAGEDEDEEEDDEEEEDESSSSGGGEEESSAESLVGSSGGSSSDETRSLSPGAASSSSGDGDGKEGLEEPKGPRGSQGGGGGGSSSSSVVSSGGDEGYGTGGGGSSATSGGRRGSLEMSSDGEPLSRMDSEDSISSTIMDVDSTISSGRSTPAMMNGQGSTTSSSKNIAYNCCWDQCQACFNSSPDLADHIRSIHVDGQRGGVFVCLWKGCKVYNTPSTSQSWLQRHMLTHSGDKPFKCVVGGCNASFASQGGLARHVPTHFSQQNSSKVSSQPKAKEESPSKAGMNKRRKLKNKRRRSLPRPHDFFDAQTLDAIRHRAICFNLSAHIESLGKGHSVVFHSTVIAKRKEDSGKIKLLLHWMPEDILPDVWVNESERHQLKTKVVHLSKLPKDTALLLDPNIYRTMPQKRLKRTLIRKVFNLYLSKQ
Sequence (Q09028 whole entry partner): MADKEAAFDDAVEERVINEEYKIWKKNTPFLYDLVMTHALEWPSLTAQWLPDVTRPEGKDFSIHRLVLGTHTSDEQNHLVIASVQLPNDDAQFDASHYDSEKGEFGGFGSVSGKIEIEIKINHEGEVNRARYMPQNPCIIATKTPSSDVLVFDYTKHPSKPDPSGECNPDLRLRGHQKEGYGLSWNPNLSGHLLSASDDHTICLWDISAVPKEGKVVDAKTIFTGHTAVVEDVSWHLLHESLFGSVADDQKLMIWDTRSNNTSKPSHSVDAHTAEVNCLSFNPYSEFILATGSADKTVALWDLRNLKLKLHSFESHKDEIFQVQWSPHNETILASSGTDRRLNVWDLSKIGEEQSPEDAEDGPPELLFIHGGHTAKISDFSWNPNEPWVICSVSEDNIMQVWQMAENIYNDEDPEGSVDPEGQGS
Assay: Hot Spot HMT assay: inhibition of PRC2 enzymatic activity (transfer of tritiated methyl from SAM to core histone, filter binding)
Type: biochemical
Settings: Inhibition of PRC2-mediated enzymatic activity; 10 nM PRC2 complex, 0.05 mg/ml core histone H3, 1 uM 3H-SAM, 1 hr at 30°C
Description: The assay uses purified human, His-tagged PRC2 complex, including N-terminal His-tagged EZH2 enzyme, N-terminal Flag-tagged embryonic ectoderm development protein (EED), N-terminal His-tagged suppressor of zeste 12 (SUZ12), N-terminal His-tagged AEBP2, and N-terminal His-tagged RbAp48. […]

Consider the worked cases shown below.
>>> observed_result("Cc1nc(N2CCN(C)CC2)ccc1-c1cnc(NCc2c(F)ccc3c2CCO3)n2cc(C#N)nc12")
"100 to 500 nM"
>>> observed_result("COc1cncc(-c2cnc(NCc3c(F)ccc4c3CCO4)n3cc(C#N)nc23)c1")
"100 to 500 nM"
>>> observed_result("CC(c1ccc(-c2cnc(NCc3c(F)ccc4c3CCO4)n3cc(C#N)nc23)cc1)N1CCCC1 (stereo not shown)")
"< 100 nM"

Entry `COCCOc1ncc(-c2cnc(NCc3c(F)ccc4c3CCO4)n3cc(C#N)nc23)cn1` has what IC50?
100 to 500 nM

====

target: purified human, His-tagged PRC2 complex (Homo sapiens, UniProt O75530+Q15910); test: Hot Spot HMT assay: inhibition of PRC2 enzymatic activity (transfer of tritiated methyl from SAM to core histone, filter binding); type: biochemical; details: Inhibition of PRC2-mediated enzymatic activity; 10 nM PRC2 complex, 0.05 mg/ml core histone H3, 1 uM 3H-SAM, 1 hr at 30°C
experimental.endpoint: IC50

Consider the worked cases shown below.
>>> observed_result("N#Cc1cn2c(NCc3c(F)ccc4c3CCO4)ncc(-c3ccn(CC4CCCO4)n3)c2n1 (centres unmarked)")
"0.1 to 0.5 µM"
>>> observed_result("Cc1n[nH]cc1-c1cnc(NCc2c(F)ccc3c2CCO3)n2cc(C#N)nc12")
"< 0.1 µM"
>>> observed_result("N#Cc1cn2c(NCc3c(F)ccc4c3CCO4)ncc(-c3cnc(N)c(C(F)(F)F)c3)c2n1")
"0.1 to 0.5 µM"
>>> observed_result("COc1ncc(-c2cnc(NCc3c(F)ccc4c3CCO4)n3cc(C#N)nc23)c(C)n1")
"< 0.1 µM"
>>> observed_result("CN1CCc2cc(-c3cnc(NCc4c(F)ccc5c4CCO5)n4cc(C#N)nc34)ccc2C1")
"0.1 to 0.5 µM"

Entry CN1CCCC1c1ccc(-c2cnc(NCc3c(F)ccc4c3CCO4)n3cc(C#N)nc23)cc1 (centres unmarked) has what IC50?
< 0.1 µM

Do the same for `Cc1nc(CN(C)C)ccc1-c1cnc(NCc2c(F)ccc3c2CCO3)n2cc(C#N)nc12` please
0.1 to 0.5 µM

Do the same for `Cc1nc(C2CC2)ncc1-c1cnc(NCc2c(F)ccc3c2CCO3)n2cc(C(=O)O)nc12` please
< 0.1 µM

====

Target: purified human, His-tagged PRC2 complex (Homo sapiens, UniProt O75530+Q15910)
Assay: Hot Spot HMT assay: inhibition of PRC2 enzymatic activity (transfer of tritiated methyl from SAM to core histone, filter binding)
Assay type: biochemical
Conditions: Inhibition of PRC2-mediated enzymatic activity; 10 nM PRC2 complex, 0.05 mg/ml core histone H3, 1 uM 3H-SAM, 1 hr at 30°C
Description: The assay uses purified human, His-tagged PRC2 complex, including N-terminal His-tagged EZH2 enzyme, N-terminal Flag-tagged embryonic ectoderm development protein (EED), N-terminal His-tagged suppressor of zeste 12 (SUZ12), N-terminal His-tagged AEBP2, and N-terminal His-tagged RbAp48. […]
experimental.endpoint: IC50

Consider the worked cases shown below.
>>> observed_result("CN(C)C(=O)c1ccc(-c2cnc(NCc3c(F)ccc4c3CCO4)n3cc(C#N)nc23)c(Cl)c1F [Example 34]")
"< 0.1 µM"
>>> observed_result("N#Cc1cc(-c2cnc(NCc3c(F)ccc4c3CCO4)n3cc(C#N)nc23)ccn1 [Example 188]")
"0.1 to 0.5 µM"
>>> observed_result("CCn1cc(-c2cnc(NCc3c(F)ccc4c3CCO4)n3cc(C#N)nc23)cn1 [Example 119]")
"0.1 to 0.5 µM"
>>> observed_result("[2H]C([2H])([2H])N(Cc1ccc(-c2cnc(NCc3c(F)ccc4c3CCO4)n3cc(C#N)nc23)c(C)c1)C([2H])([2H])[2H] [Example 202]")
"< 0.1 µM"
>>> observed_result("N#Cc1cn2c(NCc3c(F)ccc4c3CCO4)ncc(-c3cccnc3CO)c2n1 [Example 148]")
"< 0.1 µM"
>>> observed_result("COC(=O)c1ccc(-c2cnc(NCc3c(F)ccc4c3CCO4)n3cc(C#N)nc23)cc1 [Example 167]")
"0.1 to 0.5 µM"
>>> observed_result("Cc1cc(-c2cnc(NCc3c(F)ccc4c3CCO4)n3cc(C(N)=O)nc23)n(C)n1 [Example 11]")
"< 0.1 µM"
>>> observed_result("CN(C)Cc1ccc(-c2cnc(NCc3c(F)ccc4c3CCO4)n3cc(C#N)nc23)cc1C#N [Example 201]")
"< 0.1 µM"
>>> observed_result("CC(C)(O)Cn1cc(-c2cnc(NCc3c(F)ccc4c3CCO4)n3cc(C#N)nc23)cn1 [Example 121]")
"< 0.1 µM"
>>> observed_result("N#Cc1cn2c(NCc3c(F)ccc4c3CCO4)ncc(-c3ccnn3C3CC3)c2n1 [Example 193]")
"< 0.1 µM"

Entry Cc1cncc(-c2cnc(NCc3c(F)ccc4c3CCO4)n3cc(C#N)nc23)c1 [Example 96] has what IC50?
< 0.1 µM

Do the same for N#Cc1cn2c(NCc3c(F)ccc4c3CCO4)ncc(-c3ccc(C(=O)O)nc3)c2n1 [Example 215] please
< 0.1 µM

Do the same for COc1cc(Cl)c(-c2cnc(NCc3c(F)ccc4c3CCO4)n3cc(C#N)nc23)cn1 [Example 91] please
0.1 to 0.5 µM

====

Documented IC50 across a set of compounds
test system: Karpas 422 cells; assay: Karpas 422 cell viability, CTG (Cell Titre Glo) assay; format: cell-based, human; settings: Homo sapiens; Inhibition of proliferation of Karpas 422 cells (EZH2 Y641N); viability measured Day 4, Day 7 or Day 11, time point of the tabulated values not stated

Consider the worked cases shown below.
>>> observed_result("COc1ncc(-c2cnc(NCc3c(F)ccc4c3CCO4)n3cc(C#N)nc23)cc1C#N [Example 130]")
"> 500 nM"
>>> observed_result("CN(C)C(=O)c1ccc(-c2cnc(NCc3c(F)ccc4c3CCO4)n3cc(C#N)nc23)cc1 [Example 180]")
"≤ 250 nM"

Entry CCn1cc(-c2cnc(NCc3c(F)ccc4c3CCO4)n3cc(C#N)nc23)cn1 [Example 119] has what IC50?
≤ 250 nM

Do the same for Cc1cc(-c2cnc(NCc3c(F)ccc4c3CCO4)n3cc(C(=O)O)nc23)n(C)n1 [Example 1] please
> 500 nM

Do the same for Cc1ccc(-c2cnc(NCc3c(F)ccc4c3CCO4)n3cc(C#N)nc23)cc1 [Example 175] please
250 to 500 nM

Do the same for Cc1ncncc1-c1cnc(NCc2c(F)ccc3c2CCO3)n2cc(C#N)nc12 [Example 110] please
≤ 250 nM

Do the same for N#Cc1cn2c(NCc3c(F)ccc4c3CCO4)ncc(-c3cccc(C(=O)O)c3)c2n1 [Example 174] please
> 500 nM

====

Documented pIC50 across a set of compounds
system: Karpas 422 cells; experiment: Karpas 422 cell viability, CTG (Cell Titre Glo) assay; assay type: cell-based, human; conditions: Homo sapiens; Inhibition of proliferation of Karpas 422 cells (EZH2 Y641N); viability measured Day 4, Day 7 or Day 11, time point of the tabulated values not stated
pIC50: −log10 of the molar value.

>>> observed_result("N#Cc1cc(-c2cnc(NCc3c(F)ccc4c3CCO4)n3cc(C#N)nc23)ccn1 [Example 188]")
"6.30 to 6.60"
>>> observed_result("N#Cc1cn2c(NCc3c(F)ccc4c3CCO4)ncc(-c3ccc([C@H]4CCCN4)cc3)c2n1 [Example 220]")
"≥ 6.60"
>>> observed_result("N#Cc1cn2c(NCc3c(F)ccc4c3CCO4)ncc(-c3ccccc3C#N)c2n1 [Example 187]")
"6.30 to 6.60"
>>> observed_result("Cc1c(-c2cnc(NCc3c(F)ccc4c3CCO4)n3cc(C(N)=O)nc23)cnn1C(C)C [Example 16]")
"6.30 to 6.60"
>>> observed_result("CN(C)c1ccc(-c2cnc(NCc3c(F)ccc4c3CCO4)n3cc(C#N)nc23)cn1 [Example 60]")
"6.30 to 6.60"

Entry CNS(=O)(=O)c1ccc(-c2cnc(NCc3c(F)ccc4c3CCO4)n3cc(C#N)nc23)cc1 [Example 59] has what pIC50?
6.30 to 6.60

Do the same for CN(C)CCn1nccc1-c1cnc(NCc2c(F)ccc3c2CCO3)n2cc(C#N)nc12 [Example 230] please
≥ 6.60
